- TARGET_OR_SYSTEM: T2-TrpRS (Homo sapiens, UniProt P23381)
- Sequence (P23381 94-471): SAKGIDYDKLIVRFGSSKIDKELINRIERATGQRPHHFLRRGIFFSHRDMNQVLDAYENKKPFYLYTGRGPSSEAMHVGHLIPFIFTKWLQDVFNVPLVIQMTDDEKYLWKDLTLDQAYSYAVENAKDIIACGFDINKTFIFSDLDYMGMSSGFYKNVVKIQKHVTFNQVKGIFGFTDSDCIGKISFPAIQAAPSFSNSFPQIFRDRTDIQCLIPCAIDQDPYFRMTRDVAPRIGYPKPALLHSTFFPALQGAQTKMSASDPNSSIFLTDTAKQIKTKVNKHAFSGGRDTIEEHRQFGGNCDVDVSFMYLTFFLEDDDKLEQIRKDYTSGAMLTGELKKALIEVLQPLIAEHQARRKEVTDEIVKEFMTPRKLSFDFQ
PARAMETER: Kd (µM)
All answers are understood in µM, so give the number only.

Incoming: Param item = N[C@@H](Cc1c[nH]c2ccccc12)C(=O)O ; retrieve measured Kd.
Outgoing: 11
